Hey, just so you know, these numbers are from ChEMBL document CHEMBL3769355.

Can you tell me IC50 for the items I'm about to list?
- SUBJECT OF TEST: CREB-binding protein (Homo sapiens, UniProt Q92793)
- Sequence (Q92793 whole entry): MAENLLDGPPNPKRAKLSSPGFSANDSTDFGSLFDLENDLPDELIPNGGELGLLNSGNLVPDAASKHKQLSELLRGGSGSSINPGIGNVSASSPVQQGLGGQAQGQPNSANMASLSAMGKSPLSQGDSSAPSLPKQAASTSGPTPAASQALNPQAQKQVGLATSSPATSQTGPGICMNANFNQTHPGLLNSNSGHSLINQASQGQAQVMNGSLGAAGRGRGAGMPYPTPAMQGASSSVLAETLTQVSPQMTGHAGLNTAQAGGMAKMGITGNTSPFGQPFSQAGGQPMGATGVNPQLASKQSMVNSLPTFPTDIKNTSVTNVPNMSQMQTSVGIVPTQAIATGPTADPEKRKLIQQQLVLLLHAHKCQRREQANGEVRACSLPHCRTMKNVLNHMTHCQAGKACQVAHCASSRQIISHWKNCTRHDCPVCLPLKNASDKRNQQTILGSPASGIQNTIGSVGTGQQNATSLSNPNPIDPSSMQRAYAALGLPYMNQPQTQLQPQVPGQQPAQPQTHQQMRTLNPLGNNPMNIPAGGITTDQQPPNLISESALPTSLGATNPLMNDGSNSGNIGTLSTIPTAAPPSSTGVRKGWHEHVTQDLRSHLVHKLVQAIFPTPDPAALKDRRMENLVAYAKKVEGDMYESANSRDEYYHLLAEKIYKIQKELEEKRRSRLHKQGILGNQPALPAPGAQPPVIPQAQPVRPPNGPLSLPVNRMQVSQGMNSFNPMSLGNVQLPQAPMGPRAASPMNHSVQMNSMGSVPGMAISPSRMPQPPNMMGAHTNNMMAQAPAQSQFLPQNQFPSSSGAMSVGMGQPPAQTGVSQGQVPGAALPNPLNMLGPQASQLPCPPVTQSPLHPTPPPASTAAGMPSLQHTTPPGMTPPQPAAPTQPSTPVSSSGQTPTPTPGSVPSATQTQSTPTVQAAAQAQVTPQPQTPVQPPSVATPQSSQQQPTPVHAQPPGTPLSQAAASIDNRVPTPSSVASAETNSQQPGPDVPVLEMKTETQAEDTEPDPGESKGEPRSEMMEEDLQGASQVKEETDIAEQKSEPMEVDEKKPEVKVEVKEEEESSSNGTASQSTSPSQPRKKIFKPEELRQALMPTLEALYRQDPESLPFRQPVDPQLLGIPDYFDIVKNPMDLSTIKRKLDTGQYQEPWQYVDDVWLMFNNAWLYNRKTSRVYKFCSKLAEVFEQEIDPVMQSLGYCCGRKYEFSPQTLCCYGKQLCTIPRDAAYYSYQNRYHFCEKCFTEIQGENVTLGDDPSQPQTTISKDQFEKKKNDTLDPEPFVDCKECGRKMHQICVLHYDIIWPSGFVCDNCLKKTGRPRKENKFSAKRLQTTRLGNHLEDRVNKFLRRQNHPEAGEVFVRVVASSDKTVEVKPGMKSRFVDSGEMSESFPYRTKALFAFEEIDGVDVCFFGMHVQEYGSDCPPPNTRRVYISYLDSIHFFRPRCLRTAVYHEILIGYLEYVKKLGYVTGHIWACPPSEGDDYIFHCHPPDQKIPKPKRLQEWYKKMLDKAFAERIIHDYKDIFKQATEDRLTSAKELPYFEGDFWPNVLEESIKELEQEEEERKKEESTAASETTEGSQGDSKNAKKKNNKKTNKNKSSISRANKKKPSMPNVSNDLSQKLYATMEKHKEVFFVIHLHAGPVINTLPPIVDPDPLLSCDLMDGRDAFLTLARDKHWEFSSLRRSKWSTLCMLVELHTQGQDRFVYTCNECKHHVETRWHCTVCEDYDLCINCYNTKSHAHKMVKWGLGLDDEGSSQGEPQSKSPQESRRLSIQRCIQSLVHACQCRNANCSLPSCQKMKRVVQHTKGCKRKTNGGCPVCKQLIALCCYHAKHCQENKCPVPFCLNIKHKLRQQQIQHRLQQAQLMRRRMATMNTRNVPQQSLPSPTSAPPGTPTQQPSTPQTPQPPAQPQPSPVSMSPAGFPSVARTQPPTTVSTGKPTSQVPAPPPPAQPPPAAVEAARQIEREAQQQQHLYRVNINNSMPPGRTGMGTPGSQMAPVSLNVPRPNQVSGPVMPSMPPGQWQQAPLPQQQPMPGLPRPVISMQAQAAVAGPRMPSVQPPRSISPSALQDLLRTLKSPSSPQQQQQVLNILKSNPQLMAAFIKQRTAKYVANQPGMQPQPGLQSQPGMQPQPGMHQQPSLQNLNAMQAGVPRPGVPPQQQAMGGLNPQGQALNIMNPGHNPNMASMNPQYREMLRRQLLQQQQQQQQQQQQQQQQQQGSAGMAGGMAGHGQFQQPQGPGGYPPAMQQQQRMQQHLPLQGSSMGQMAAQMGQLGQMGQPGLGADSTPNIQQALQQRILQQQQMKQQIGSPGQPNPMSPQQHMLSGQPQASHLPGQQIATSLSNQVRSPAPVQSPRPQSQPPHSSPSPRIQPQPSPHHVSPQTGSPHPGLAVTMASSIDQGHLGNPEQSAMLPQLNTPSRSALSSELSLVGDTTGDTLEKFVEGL
- EXPERIMENTAL DETAILS: Inhibition of human recombinant GST-tagged CREBBP using non acetylated ligand 1 as substrate incubated for 2 hrs by TR-FRET assay
Give a bare numeral; the unit µM is implied.

The measured IC50 associated with `CCOc1ccc(C(C)=O)cc1NC(=O)c1cccc(-n2cnnn2)c1` reads 7.5

The measured IC50 associated with CCOc1ccc(C(C)=O)cc1NC(=O)c1cc(COC2CCCCO2)cc(C(=O)O)c1 (configuration not stated) reads 1

The measured IC50 associated with `COc1ccc(C(C)=O)cc1NC(=O)/C=C/C(=O)O` reads 60

The measured IC50 associated with `CC(=O)c1ccc(C2CC2)c(NC(=O)c2cccc(C(=O)O)c2)c1` reads 15

The measured IC50 associated with `CCOc1ccc(C(C)=O)cc1NC(=O)c1cc(C(=O)O)cc(-c2ccncc2)c1` reads 3

The measured IC50 associated with `CCCOc1ccc(C(C)=O)cc1NC(=O)c1cccc(C(=O)O)c1` reads 7.4

The measured IC50 associated with `CCOc1ccc(C(C)=O)cc1NC(=O)c1cc(CO)cc(C(=O)O)c1` reads 3

The measured IC50 associated with `CCOc1ccc(C(C)=O)cc1NC(=O)c1cccc(C(=O)O)c1` reads 8.7

The measured IC50 associated with `CCOc1ccc(C(C)=O)cc1NC(=O)c1ccccc1C(=O)O` reads 64

The measured IC50 associated with `CCOc1ccc(C(C)=O)cc1NC(=O)c1cc(COC)cc(C(=O)O)c1` reads 2

The measured IC50 associated with `CCOc1ccc(C(C)=O)cc1NC(=O)c1cc(C(=O)O)cc(-c2ccoc2)c1` reads 1

The measured IC50 associated with `CCOc1ccc(C(C)=O)cc1NC(=O)c1cccc(C(=O)OC)c1` reads 5

The measured IC50 associated with `CC(=O)c1cccc(NC(=O)/C=C/C(=O)O)c1` reads 30

* * *

- SUBJECT OF TEST: Bromodomain-containing protein 4 (Homo sapiens)
- EXPERIMENTAL DETAILS: Binding affinity to human BRD4 bromodomain 1 expressed in Escherichia coli BL21(DE3) cells at 100 uM by SYPRO orange staining based fluorescence thermal shift assay
Can you tell me ΔTm for the items I'm about to list?
Field note: include the unit after the figure.

The measured ΔTm associated with `CCOc1ccc(C(C)=O)cc1NC(=O)c1cccc(C(=O)O)c1` reads 0.4 °C

The measured ΔTm associated with `CCOc1ccc(C(C)=O)cc1NC(=O)c1cc(COC)cc(C(=O)O)c1` reads 1.3 °C

The measured ΔTm associated with CCOc1ccc(C(C)=O)cc1NC(=O)c1cc(COC2CCCCO2)cc(C(=O)O)c1 (centres undefined) reads 1.7 °C

The measured ΔTm associated with `CCOc1ccc(C(C)=O)cc1NC(=O)c1cc(C(=O)O)cc(-c2ccoc2)c1` reads 1.5 °C

* * *

- SUBJECT OF TEST: CREB-binding protein (Homo sapiens, UniProt Q92793)
- EXPERIMENTAL DETAILS: Binding affinity to human His-tagged CREBBP expressed in Escherichia coli BL21(DE3) cells by isothermal titration calorimetry
MEASURE: Kd (nM)
Give a bare numeral; the unit nM is implied.

The measured Kd associated with `CCOc1ccc(C(C)=O)cc1NC(=O)c1cccc(C(=O)O)c1` reads 2000

The measured Kd associated with `CCOc1ccc(C(C)=O)cc1NC(=O)c1cc(COC)cc(C(=O)O)c1` reads 800

The measured Kd associated with `CCOc1ccc(C(C)=O)cc1NC(=O)c1cc(C(=O)O)cc(-c2ccoc2)c1` reads 300

* * *

- SUBJECT OF TEST: Histone acetyltransferase p300 (Homo sapiens)
- EXPERIMENTAL DETAILS: Binding affinity to EP300 (unknown origin) at 100 uM by SYPRO orange staining based fluorescence thermal shift assay
MEASURE: ΔTm (°C)
Give a bare numeral; the unit °C is implied.

Record `CCOc1ccc(C(C)=O)cc1NC(=O)c1cccc(S(=O)(=O)Nc2ccccc2)c1` ; system Histone acetyltransferase p300 (Homo sapiens); ΔTm = 0

Record `CCOc1ccc(C(C)=O)cc1NC(=O)c1cccc(C(=O)O)c1` ; system Histone acetyltransferase p300 (Homo sapiens); ΔTm = 3.4

Record `CCOc1ccc(C(C)=O)cc1NC(=O)c1cc(CO)cc(C(=O)O)c1` ; system Histone acetyltransferase p300 (Homo sapiens); ΔTm = 3.7

Record CCOc1ccc(C(C)=O)cc1NC(=O)c1cc(COC2CCCCO2)cc(C(=O)O)c1 (centres undefined) ; system Histone acetyltransferase p300 (Homo sapiens); ΔTm = 5.9

Record `CC(=O)c1ccc(C2CC2)c(NC(=O)c2cccc(C(=O)O)c2)c1` ; system Histone acetyltransferase p300 (Homo sapiens); ΔTm = 3.1

Record `CCOc1ccc(C(C)=O)cc1NC(=O)c1cc(COC)cc(C(=O)O)c1` ; system Histone acetyltransferase p300 (Homo sapiens); ΔTm = 4.6

Record `CC(=O)c1ccc(OCC(C)C)c(NC(=O)c2cccc(C(=O)O)c2)c1` ; system Histone acetyltransferase p300 (Homo sapiens); ΔTm = 3

Record `CCCOc1ccc(C(C)=O)cc1NC(=O)c1cccc(C(=O)O)c1` ; system Histone acetyltransferase p300 (Homo sapiens); ΔTm = 3.4

Record `CC(=O)c1ccc(N2CCOCC2)c(NC(=O)c2cccc(C(=O)O)c2)c1` ; system Histone acetyltransferase p300 (Homo sapiens); ΔTm = 1.3

* * *

- SUBJECT OF TEST: Histone acetyltransferase p300 (Homo sapiens)
- EXPERIMENTAL DETAILS: Binding affinity to EP300 (unknown origin) at 100 uM by SYPRO orange staining based fluorescence thermal shift assay
Can you tell me ΔTm for the items I'm about to list?
Give a bare numeral; the unit °C is implied.

The measured ΔTm associated with `CC(=O)c1ccc(OCC2CC2)c(NC(=O)c2cccc(C(=O)O)c2)c1` reads 3.6

The measured ΔTm associated with `CCOc1ccc(C(C)=O)cc1NC(=O)c1cc(C(=O)O)cc(-c2ccoc2)c1` reads 5.9

The measured ΔTm associated with `CC(=O)c1ccc(OCc2ccccc2)c(NC(=O)c2cccc(C(=O)O)c2)c1` reads 2.6

The measured ΔTm associated with `CCOc1ccc(C(C)=O)cc1NC(=O)c1cccc(NS(=O)(=O)c2ccccc2)c1` reads 0.4

The measured ΔTm associated with `CCOc1ccc(C(C)=O)cc1NC(=O)c1cccc(-n2cnnn2)c1` reads 2.6

* * *

- SUBJECT OF TEST: Bromodomain-containing protein 4 (Homo sapiens, UniProt O60885)
- EXPERIMENTAL DETAILS: Competitive binding affinity to human BRD4 bromodomain 2 expressed in T7 phage-infected Escherichia coli BL21(DE3) cells incubated for 1 hr by bromoscan assay
pKd: −log10 of the molar value.
MEASURE: pKd

The measured pKd associated with `CCOc1ccc(C(C)=O)cc1NC(=O)c1cccc(C(=O)O)c1` reads < 4.30

The measured pKd associated with `CCOc1ccc(C(C)=O)cc1NC(=O)c1cc(C(=O)O)cc(-c2ccoc2)c1` reads < 4.44

The measured pKd associated with `CCOc1ccc(C(C)=O)cc1NC(=O)c1cc(COC)cc(C(=O)O)c1` reads < 4.30

* * *

- SUBJECT OF TEST: Bromodomain-containing protein 2 (Homo sapiens, UniProt P25440)
- Sequence (P25440 whole entry): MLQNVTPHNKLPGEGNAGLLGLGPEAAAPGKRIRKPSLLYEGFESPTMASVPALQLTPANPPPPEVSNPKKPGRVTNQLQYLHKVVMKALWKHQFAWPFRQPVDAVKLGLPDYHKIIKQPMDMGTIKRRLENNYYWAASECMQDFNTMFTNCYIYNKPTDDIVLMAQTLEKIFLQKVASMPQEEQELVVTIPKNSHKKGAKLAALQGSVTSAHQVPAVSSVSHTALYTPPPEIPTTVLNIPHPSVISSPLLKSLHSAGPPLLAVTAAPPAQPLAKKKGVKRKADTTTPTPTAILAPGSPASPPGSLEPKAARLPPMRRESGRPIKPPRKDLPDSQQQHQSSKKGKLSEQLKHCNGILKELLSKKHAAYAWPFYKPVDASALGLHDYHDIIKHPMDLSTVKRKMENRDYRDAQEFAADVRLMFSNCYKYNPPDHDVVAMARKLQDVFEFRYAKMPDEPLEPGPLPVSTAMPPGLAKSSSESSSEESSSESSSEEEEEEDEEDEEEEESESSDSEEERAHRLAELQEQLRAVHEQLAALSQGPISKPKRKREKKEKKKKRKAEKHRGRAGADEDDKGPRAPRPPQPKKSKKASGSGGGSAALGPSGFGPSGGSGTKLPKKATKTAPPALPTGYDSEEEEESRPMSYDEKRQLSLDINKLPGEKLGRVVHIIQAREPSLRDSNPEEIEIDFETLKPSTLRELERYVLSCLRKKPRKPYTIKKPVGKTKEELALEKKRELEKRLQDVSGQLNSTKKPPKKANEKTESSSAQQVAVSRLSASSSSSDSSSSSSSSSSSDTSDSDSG
- EXPERIMENTAL DETAILS: Competitive binding affinity to human BRD2 bromodomain 2 expressed in T7 phage-infected Escherichia coli BL21(DE3) cells incubated for 1 hr by bromoscan assay
MEASURE: Kd

Record `CCOc1ccc(C(C)=O)cc1NC(=O)c1cccc(C(=O)O)c1` ; system Bromodomain-containing protein 2 (Homo sapiens, UniProt P25440); Kd = > 50 µM

Record `CCOc1ccc(C(C)=O)cc1NC(=O)c1cc(COC)cc(C(=O)O)c1` ; system Bromodomain-containing protein 2 (Homo sapiens, UniProt P25440); Kd = > 50 µM

Record `CCOc1ccc(C(C)=O)cc1NC(=O)c1cc(C(=O)O)cc(-c2ccoc2)c1` ; system Bromodomain-containing protein 2 (Homo sapiens, UniProt P25440); Kd = 24 µM

* * *

- System: ML-2
- EXPERIMENTAL DETAILS: Cytotoxicity against human ML2 cells assessed as growth inhibition after 48 hrs by resazurin assay
- Type: functional
Activity calls are given as the source filed them. The rule behind the calls is not given here.
MEASURE: growth inhibition (GI)

smiles_text=CC(=O)c1ccc(OCC(C)C)c(NC(=O)c2cccc(C(=O)O)c2)c1 result=Active
smiles_text=CCOc1ccc(C(C)=O)cc1NC(=O)c1cc(CO)cc(C(=O)O)c1 result=Active
smiles_text=CCOc1ccc(C(C)=O)cc1NC(=O)c1cccc(C(=O)O)c1 result=Active
smiles_text=CC(=O)c1ccc(OCC2CC2)c(NC(=O)c2cccc(C(=O)O)c2)c1 result=Active
smiles_text=CCOc1ccc(C(C)=O)cc1C(=O)Nc1cccc(C(=O)O)c1 result=Active

The measured growth inhibition (GI) associated with `CCOc1ccc(C(C)=O)cc1NC(=O)c1cc(COC)cc(C(=O)O)c1` reads Active

The measured growth inhibition (GI) associated with `CCOc1ccc(C(C)=O)cc1NC(=O)c1cc(C(=O)O)cc(-c2ccoc2)c1` reads Active

The measured growth inhibition (GI) associated with `CCCOc1ccc(C(C)=O)cc1NC(=O)c1cccc(C(=O)O)c1` reads Active
